Assay: Cytotoxicity against human U87-Mg cells after 72 hrs by MTT assay
Assay type: cell-based, U-87MG ATCC
Conditions: U-87 MG
Lab note - cut at 200 µM for IC50: yes if strictly below, no if not.

Query :: Does the reported IC50 of CC(C)[C@@H]1CC[C@]2(C(=O)O)CC[C@]3(C)[C@H](CC[C@@H]4[C@@]5(C)Cc6nc7ccccc7nc6C(C)(C)[C@@H]5CC[C@]43C)[C@@H]12 stay below 200 µM?
Result :: yes

Query :: Does the reported IC50 of C=C(C)[C@@H]1CC[C@]2(C(=O)O)CC[C@]3(C)[C@H](CC[C@@H]4[C@@]5(C)CCC(=O)C(C)(C)[C@@H]5CC[C@]43C)[C@@H]12 stay below 200 µM?
Result :: yes

Query :: Does the reported IC50 of COC(=O)[C@@]12CC[C@]3(C)[C@H](CC[C@@H]4[C@@]5(C)CC[C@H](OC(C)=O)C(C)(C)[C@@H]5CC[C@]43C)C1=C(C(C)C)C(=O)C2=O stay below 200 µM?
Result :: yes

Query :: Does the reported IC50 of COC(=O)[C@]12CC[C@@H](C(C)C)[C@@H]1[C@H]1CC[C@@H]3[C@@]4(C)Cc5nccnc5C(C)(C)[C@@H]4CC[C@@]3(C)[C@]1(C)CC2 stay below 200 µM?
Result :: no

Query :: Does the reported IC50 of C=C(C)[C@@H]1CC[C@]2(C(=O)OC)CC[C@]3(C)[C@H](CC[C@@H]4[C@@]5(C)Cc6nc7ccccc7nc6C(C)(C)[C@@H]5CC[C@]43C)[C@@H]12 stay below 200 µM?
Result :: no

Data provenance: ChEMBL document CHEMBL1142126
